# Test system: CTL2-GFP (C. trachomatis L2/434/Bu, GFP-expressing)
# Construct: L2/434/Bu, GFP-expressing
# TEST: microbe, parasite or virus in culture
# Design: Intracellular C. trachomatis growth in HeLa cells, bulk GFP fluorescence relative to DMSO
# TEST_CONDITIONS: Chlamydia trachomatis, HeLa, 28.5 h; bulk GFP, mean of 2; read-out: % of control remaining
Quick rule for you: activity at 10 µM under 30% gets true (1), anything else gets false (0).

// below: answered molecules
• O=C(O)c1[nH]c2ccccc2c1C(c1ccsc1)c1c(C(=O)O)[nH]c2ccccc12 [CBK267811] = false (0)
• C/C(Nc1ccc(S(=O)(=O)Nc2nccc(C)n2)cc1)=C1\C(=O)N(c2nc3ccccc3s2)N=C1C(F)(F)F [CBK263002] = true (1)
• Cc1ccc(C(=O)/C=C\Nc2ccc(S(=O)(=O)Nc3cc(C)nc(C)n3)cc2)cc1 [CBK264384] = false (0)
• CC(C)NCC(O)Cn1c2c(c3ccccc31)CCc1c-2cnn1-c1ccccc1 (centres unmarked) [CBK261107] = true (1)
• COc1ccc([C@H]2CN(Cc3ccccc3)[C@@H]3CCN(C(=O)Cc4ccccc4)C[C@H]23)cc1 [CBK286285] = false (0)
• COc1cccc(C(=O)/C=C\Nc2ccc(S(=O)(=O)Nc3onc(C)c3C)cc2)c1 [CBK264206] = true (1)

Please look at the following molecule next.
Data request: I'd appreciate it if you could check whether CCOc1ccsc1C(=O)NC1Cc2ccccc2C1 [CBK200359] has activity at 10 µM smaller than 30%.
Data returned: true (1)
